Biological target: T1, membrane LIGHT W197A (human, UniProt O43557 1-240)
T1 chain: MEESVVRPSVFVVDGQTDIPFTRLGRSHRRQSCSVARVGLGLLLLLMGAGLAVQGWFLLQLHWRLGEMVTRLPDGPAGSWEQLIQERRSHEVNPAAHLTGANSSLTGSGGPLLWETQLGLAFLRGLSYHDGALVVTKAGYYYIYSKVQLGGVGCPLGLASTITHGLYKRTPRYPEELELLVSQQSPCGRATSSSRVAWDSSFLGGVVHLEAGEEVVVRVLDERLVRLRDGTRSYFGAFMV
Experiment: flow cytometry, transfected HEK293FF, mAb at EC50
Documented binding, % of WT across a set of binders

Binder	binding, % of WT
3C10 (antibody, human IgG4, V domains shown, chimeric human IgG4 (S-to-P, L-to-E at 248), human CL; also called Parental 3C10) VH: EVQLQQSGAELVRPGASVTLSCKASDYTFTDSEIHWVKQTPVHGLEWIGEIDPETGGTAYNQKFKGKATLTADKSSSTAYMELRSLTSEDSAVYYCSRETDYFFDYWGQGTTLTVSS VL: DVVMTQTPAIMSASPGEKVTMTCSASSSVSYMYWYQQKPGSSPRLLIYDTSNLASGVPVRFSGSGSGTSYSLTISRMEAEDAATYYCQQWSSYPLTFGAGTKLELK	0%
3E09 (antibody, V domains shown, chimeric human IgG4 (S-to-P, L-to-E at 248), human CL; also called Parental 3E09) VH: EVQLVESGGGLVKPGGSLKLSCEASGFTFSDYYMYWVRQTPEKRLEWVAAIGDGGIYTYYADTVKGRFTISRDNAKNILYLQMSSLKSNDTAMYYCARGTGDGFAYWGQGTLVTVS VL: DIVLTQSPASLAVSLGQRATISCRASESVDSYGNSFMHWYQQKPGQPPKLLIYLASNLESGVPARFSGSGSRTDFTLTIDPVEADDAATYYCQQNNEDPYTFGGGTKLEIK	1%
2B11 (antibody, human IgG4, V domains shown, chimeric human IgG4 (S-to-P, L-to-E at 248), human CL; also called Parental 2B11) VH: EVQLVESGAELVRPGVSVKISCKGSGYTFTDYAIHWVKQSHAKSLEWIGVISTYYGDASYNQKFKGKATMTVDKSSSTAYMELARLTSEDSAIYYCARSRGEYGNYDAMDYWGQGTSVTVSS VL: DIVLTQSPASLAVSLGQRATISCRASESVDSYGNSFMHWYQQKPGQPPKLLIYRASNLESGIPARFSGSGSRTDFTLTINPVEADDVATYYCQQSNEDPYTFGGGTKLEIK	0%
3D12 (antibody, human IgG4, V domains shown, chimeric: mouse variable domains on human IgG4 HC (S-to-P and L-to-E at 248) and human CL; also called Parental 3D12; 3D12 chimeric) VH: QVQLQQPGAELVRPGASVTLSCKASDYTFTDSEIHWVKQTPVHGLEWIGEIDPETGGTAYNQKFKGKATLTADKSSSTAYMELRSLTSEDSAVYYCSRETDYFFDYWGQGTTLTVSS VL: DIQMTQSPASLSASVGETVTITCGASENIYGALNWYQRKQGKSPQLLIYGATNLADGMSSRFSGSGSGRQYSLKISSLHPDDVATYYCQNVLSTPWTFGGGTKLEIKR	1%
